biological target: progesterone receptor (PR) (Homo sapiens, UniProt P06401); construct: of the progesterone receptor (PR, amino acids 680-933); experiment: Cellular in vitro assay, GAL4-PR chimera luciferase reporter in CHO K1 cells (selectivity); settings: antagonism vs progesterone; CHO K1 GAL4-PR LBD luciferase reporter
Sequence (P06401 680-933): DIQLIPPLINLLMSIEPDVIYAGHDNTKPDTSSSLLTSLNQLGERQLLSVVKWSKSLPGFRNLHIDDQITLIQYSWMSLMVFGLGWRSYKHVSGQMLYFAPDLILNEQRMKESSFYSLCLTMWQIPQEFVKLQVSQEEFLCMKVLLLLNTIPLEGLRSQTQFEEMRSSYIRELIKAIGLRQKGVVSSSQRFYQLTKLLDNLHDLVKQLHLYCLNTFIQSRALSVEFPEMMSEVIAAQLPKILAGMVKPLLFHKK
observationType: IC50 (µM)
Could you give me the number in µM? Just the number is fine.

# IC50 of CS(=O)(=O)Cc1cc(F)cc2c(C(c3ccc(Cl)cc3F)C3CC3C#N)c[nH]c12 (single isomer, unassigned) [Example 273-1-2] = 10

# IC50 of CS(=O)(=O)Cc1c(F)ccc2c(C(CCC#N)c3ccc(Cl)cc3)c[nH]c12 (stereo not shown) [Example 71] = 4.47

# IC50 of CS(=O)(=O)Cc1cccc2c(C(c3ccc(Cl)cc3)C3CC3)c[nH]c12 (stereo not shown) [Example 249] = 9.73

# IC50 of CS(=O)(=O)Cc1cccc2c(C(c3ccc(F)cc3)c3ccc(C(F)(F)F)cc3)c[nH]c12 (stereo not shown) [Example 113] = 7.24

# IC50 of C[S+]([O-])Cc1cc(F)cc2c(C(CCC#N)c3ccc(Cl)cc3Cl)c[nH]c12 (mixture of isomers) [Example 82] = 5.81

# IC50 of CSCc1cccc2c(C(c3ccc(F)cc3)c3ccc(Cl)cc3F)c[nH]c12 (stereo not shown) [Example 104] = 8.56

# IC50 of CS(=O)(=O)Cc1cccc2c(C3(C4CC4)CCOc4cc(F)cc(F)c43)c[nH]c12 (stereo not shown) [Example 219] = 8.12

# IC50 of C[S+]([O-])Cc1cccc2c(C(c3ccc(F)cc3)c3ccc(Cl)cc3F)c[nH]c12 (mixture of isomers) [Example 130] = 8.88

# IC50 of CS(=O)(=O)Cc1cccc2c(C(c3ccc(Cl)cc3Cl)C3CC3(F)F)c[nH]c12 (single isomer, unassigned) [Example 325-1-1] = 7.53

# IC50 of CS(=O)(=O)Cc1cccc2c(C(CCCC#N)c3ccc(Cl)cc3)c[nH]c12 (stereo not shown) [Example 70] = 7.75

# IC50 of CS(=O)(=O)Cc1cccc2c(C(c3c(F)cc(Cl)cc3F)C3CC3)c[nH]c12 (stereo not shown) [Example 252] = 10

# IC50 of CS(=O)(=O)Cc1cccc2c(C(CCC#N)c3ccc(C(F)(F)F)cc3)c[nH]c12 (single isomer, unassigned) [Example 56-1] = 4.07

# IC50 of CS(=O)(=O)Cc1cccc2c(C(CCC#N)c3ccc4c(c3)OC(F)(F)O4)c[nH]c12 (stereo not shown) [Example 169] = 6.57

# IC50 of CS(=O)(=O)Cc1cccc2c(C(c3ccc(Cl)cc3)C3CC3(F)F)c[nH]c12 (single isomer, unassigned) [Example 261-2] = 5.24

# IC50 of CS(=O)(=O)Cc1cccc2c(C(CCC#N)c3ccc4sccc4c3)c[nH]c12 (stereo not shown) [Example 73] = 6.44

# IC50 of Cc1ccc(C(CCC#N)c2c[nH]c3c(CS(C)(=O)=O)cccc23)cc1 (stereo not shown) [Example 166] = 10

# IC50 of CSCc1cc(F)cc2c(C(C)(c3ccc(Cl)cc3)C3CC3C#N)c[nH]c12 (stereo not shown) [Example 179] = 1.93

# IC50 of CS(=O)(=O)Cc1cccc2c(C(c3ccc(F)cc3F)C3CC3)c[nH]c12 (stereo not shown) [Example 250] = 10

# IC50 of CSCc1cccc2c(C(CCC#N)c3ccc(Cl)cc3F)c[nH]c12 (single isomer, unassigned) [Example 38-1] = 1.51

Where do these numbers come from? They come from patent US20110201564A1.
